experiment: Half life in human plasma at 1 mM by HPLC analysis; assay type: ADME, cell-free
QUANTITY: half-life at 1000 µM (h)

a. CSc1nc(N(C(=O)OCCN2CCN(C)CC2)c2cccc(Br)c2)c2cnn(CC(C)c3ccccc3)c2n1 (configuration not stated)
b. CCCCN(C(=O)OCCN1CCN(C)CC1)c1nc(SCC)nc2c1cnn2CC(Cl)c1ccccc1 (configuration not stated)
Enquiry: Would you let me know which has the greater half-life at 1000 µM value, a or b ? The response must carry the label of the picked entry.
Return: a

* * *

assay: cells; conditions: Mus musculus, 32D, 48 h
Description: Cytotoxicity against mouse 32D cells expressing BCR/ABL fusion protein p210 after 48 hrs by trypan blue dye exclusion assay
pIC50: −log10 of the molar value.
QUANTITY: pIC50

CCCCNc1nc(SCC)nc2c1cnn2CC(Cl)c1ccccc1 (centres undefined) = 5.46
CSc1nc(Nc2cccc(Br)c2)c2cnn(CC(C)c3ccccc3)c2n1 (centres undefined) = 5.21

I. CSc1nc(N(C(=O)OCCN2CCN(C)CC2)c2cccc(Br)c2)c2cnn(CC(C)c3ccccc3)c2n1 (centres undefined)
II. CCCCN(C(=O)OCCN1CCN(C)CC1)c1nc(SCC)nc2c1cnn2CC(Cl)c1ccccc1 (centres undefined)
Enquiry: Dear colleague, could you let me know whether I or II has the lower recorded pIC50? Thanks. Write down the label attached to your selection.
Return: I

* * *

assay: Metabolic stability in human liver microsomes assessed as compound remaining at 50 uM after 60 mins by UV/LC/MS analysis; assay type: ADME, Microsome; details: read-out: Stability
QUANTITY: remaining at 1 h, 50 µM (%)

CSc1nc(Nc2cccc(Br)c2)c2cnn(CC(C)c3ccccc3)c2n1 (stereo not drawn) = 95.1
CSc1nc(N(C(=O)OCCN2CCN(C)CC2)c2cccc(Br)c2)c2cnn(CC(C)c3ccccc3)c2n1 (stereo not drawn) = 99.9
CCCCNc1nc(SCC)nc2c1cnn2CC(Cl)c1ccccc1 (stereo not drawn) = 91.5

* * *

test: Half life in methanol at 500 uM by HPLC analysis; format: physicochemical
QUANTITY: half-life at 500 µM (h)
Reply with just the number (in h).

Enquiry: Give me measured half-life at 500 µM, please, for this compound: CCCCN(C(=O)OCCN1CCN(C)CC1)c1nc(SCC)nc2c1cnn2CC(Cl)c1ccccc1 (configuration not stated)
Return: 2.08

* * *

assay: Half life in water at 500 uM by HPLC analysis; assay type: physicochemical
QUANTITY: half-life at 500 µM (min)
Your answer should be a plain number; it is taken to be in min.

Enquiry: Supply half-life at 500 µM value. Item: CCCCN(C(=O)OCCN1CCN(C)CC1)c1nc(SCC)nc2c1cnn2CC(Cl)c1ccccc1 (configuration not stated)
Return: 30

* * *

experiment: Apparent permeability of the compound after 5 hrs by PAMPA; assay type: ADME; conditions: pampa, 5 h
QUANTITY: Papp (×10⁻⁶ cm/s)
Lab book: enter the figure in ×10⁻⁶ cm/s, no units written.

Enquiry: Tell me Papp reported for CSc1nc(N(C(=O)OCCN2CCN(C)CC2)c2cccc(Br)c2)c2cnn(CC(C)c3ccccc3)c2n1 (stereo unspecified)
Return: 2.11

* * *

assay: Half life in phosphate buffer at 500 uM at pH 7.4 by HPLC analysis; format: physicochemical
QUANTITY: half-life at 500 µM (h)
Lab book: enter the figure in h, no units written.

Enquiry: Give the reported value of half-life at 500 µM for this record: CCCCN(C(=O)OCCN1CCN(C)CC1)c1nc(SCC)nc2c1cnn2CC(Cl)c1ccccc1 (configuration not stated)
Return: 1.05

* * *

experiment: Thermodynamic solubility of the compound in water at 1 mg after 24 hrs by UV/LC-MS analysis; type: physicochemical; settings: read-out: Therm_solubility
QUANTITY: solubility thermodynamic at 24 h (µg/mL)

P. CCCCNc1nc(SCC)nc2c1cnn2CC(Cl)c1ccccc1 (configuration not stated)
Q. CSc1nc(Nc2cccc(Br)c2)c2cnn(CC(C)c3ccccc3)c2n1 (configuration not stated)
Enquiry: Of the two listed items, which has the higher solubility thermodynamic at 24 h? First: P Second: Q Lab log: write the label of the selected item as the result.
Return: P
(P: 0.05 µg/mL, Q: 0.01 µg/mL)
